- System: Sphaerotheca fuliginea
- assay: Sphaerotheca test (cucumbers)/protective
- Type: in vivo
- condition.parameters: Podosphaera fuliginea, 168 h, Table C, test 4; 5 ppm a.i.; read-out: Efficacy in % found
- Protocol: Solvent: 24.5 parts by weight of acetone • 24.5 parts by weight of dimethylacetamide Emulsifier: 1 part by weight of alkylaryl polyglycol ether To produce a suitable preparation of active compound, 1 part by weight of active compound is mixed with the stated amounts of solvent and emulsifier, and the concentrate is diluted with water to the desired concentration. […] The test is evaluated 7 days after the inoculation. […]
measured.quantity: pest or weed control at 5 ppm (%)
# output: bare number, implied unit %

Task: What value of pest or weed control at 5 ppm on Sphaerotheca fuliginea does CO/N=C(/C(=O)OC)c1ccccc1COc1ccccc1C have?
Output: 52

Task: What value of pest or weed control at 5 ppm on Sphaerotheca fuliginea does CC(C)(C)C(=O)C(Oc1ccc(Cl)cc1)n1cncn1 (stereo not shown) have?
Output: 19

Task: What value of pest or weed control at 5 ppm on Sphaerotheca fuliginea does CC(C)(C)C(O)C(Oc1ccc(-c2ccccc2)cc1)n1cncn1 (stereo not shown) have?
Output: 71

Task: What value of pest or weed control at 5 ppm on Sphaerotheca fuliginea does CC1COC(Cn2cncn2)(c2ccc(Oc3ccc(Cl)cc3)cc2Cl)O1 (stereo not shown) have?
Output: 38

###

- Tested on: Botrytis cinerea
- assay: Botrytis test (beans)/protective
- Format: in vivo
- condition.parameters: Botrytis cinerea, 48 h, Table F, test 1; 25 ppm a.i.; read-out: Efficacy in % found
measured.quantity: pest or weed control at 25 ppm (%)
# output: bare number, implied unit %

Task: Sample COC(=O)N(OC)c1ccccc1COc1ccn(-c2ccc(Cl)cc2)n1 — what was its pest or weed control at 25 ppm?
Output: 63

Task: Sample CC(C)NC(=O)N1CC(=O)N(c2cc(Cl)cc(Cl)c2)C1=O — what was its pest or weed control at 25 ppm?
Output: 0

Task: Sample CON=C(C(=O)OC)c1ccccc1CON=C(C)c1cccc(C(F)(F)F)c1 — what was its pest or weed control at 25 ppm?
Output: 40

Task: Sample OC(Cc1ccccc1Cl)(Cn1nc[nH]c1=S)C1(Cl)CC1 (stereo not drawn) — what was its pest or weed control at 25 ppm?
Output: 49

Task: Sample Cn1cc(C(=O)Nc2ccccc2-c2ccccc2C(F)(F)F)c(C(F)(F)F)n1 — what was its pest or weed control at 25 ppm?
Output: 89

Task: Sample O=C(Nc1ccccc1-c1ccc(Cl)cc1)c1cccnc1Cl — what was its pest or weed control at 25 ppm?
Output: 50
